# SYSTEM_TESTED: KIF18A (Homo sapiens (Human))
# Sequence (Q8NI77 1-367): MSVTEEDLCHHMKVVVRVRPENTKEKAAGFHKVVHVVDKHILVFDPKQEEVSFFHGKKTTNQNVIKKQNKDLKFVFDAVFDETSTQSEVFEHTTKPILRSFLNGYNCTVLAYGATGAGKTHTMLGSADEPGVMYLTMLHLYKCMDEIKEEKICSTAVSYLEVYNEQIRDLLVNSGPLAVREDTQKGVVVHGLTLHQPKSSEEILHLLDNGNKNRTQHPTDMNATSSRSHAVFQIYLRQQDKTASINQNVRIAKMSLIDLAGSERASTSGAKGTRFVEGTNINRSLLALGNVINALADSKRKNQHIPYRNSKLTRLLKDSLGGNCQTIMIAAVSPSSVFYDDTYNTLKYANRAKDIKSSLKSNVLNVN
# Sequence (P02550 whole entry partner): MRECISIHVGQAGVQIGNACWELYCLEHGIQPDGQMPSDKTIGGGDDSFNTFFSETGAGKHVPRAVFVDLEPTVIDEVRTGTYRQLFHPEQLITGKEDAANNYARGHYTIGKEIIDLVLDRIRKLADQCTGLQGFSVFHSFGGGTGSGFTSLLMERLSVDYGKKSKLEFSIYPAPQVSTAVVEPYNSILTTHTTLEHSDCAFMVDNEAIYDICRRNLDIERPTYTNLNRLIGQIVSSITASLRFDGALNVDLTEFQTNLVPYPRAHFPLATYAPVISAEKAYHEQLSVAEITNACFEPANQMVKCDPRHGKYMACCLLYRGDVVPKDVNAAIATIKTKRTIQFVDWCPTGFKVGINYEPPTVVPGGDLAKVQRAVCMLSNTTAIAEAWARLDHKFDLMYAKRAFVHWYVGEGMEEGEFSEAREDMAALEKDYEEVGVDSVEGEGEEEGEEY
# Sequence (P02554 whole entry partner): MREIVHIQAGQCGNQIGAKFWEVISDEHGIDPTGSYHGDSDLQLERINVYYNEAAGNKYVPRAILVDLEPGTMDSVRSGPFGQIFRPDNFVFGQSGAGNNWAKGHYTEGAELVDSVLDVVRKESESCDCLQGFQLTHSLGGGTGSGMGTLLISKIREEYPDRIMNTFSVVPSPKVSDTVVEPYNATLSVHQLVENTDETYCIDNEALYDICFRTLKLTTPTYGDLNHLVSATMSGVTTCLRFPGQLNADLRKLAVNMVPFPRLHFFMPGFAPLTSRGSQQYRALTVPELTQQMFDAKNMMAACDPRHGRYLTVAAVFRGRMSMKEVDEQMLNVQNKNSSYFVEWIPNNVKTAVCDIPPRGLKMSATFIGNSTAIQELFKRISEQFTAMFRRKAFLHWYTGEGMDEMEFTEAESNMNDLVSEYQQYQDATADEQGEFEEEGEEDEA
pIC50: −log10 of the molar value.
// reported pIC50 per item

Solved cases below.
* Cc1cc(NC(=O)c2ccc(NS(=O)(=O)CCO)cc2N2CC[Si](C)(C)CC2)nc(C2CCC(F)(F)CC2)n1 | > 7.00
* CC1CN(c2cccc(NC(=O)c3ccc(NS(=O)(=O)CCO)cc3N3CC[Si](C)(C)CC3)n2)CCO1 (stereo not drawn) | > 7.00
* Cc1cc(NC(=O)c2ccc(NS(=O)(=O)CCO)cc2N2CC[Si](C)(C)CC2)nc(N2CCC(F)(F)CC2)n1 | 6.30 to 7.00
* Cc1cc(NC(=O)c2ccc(NS(=O)(=O)CCO)cc2N2CC[C@]3(C(F)F)C[C@@H]3C2)nc(N2CCC(F)(F)CC2)n1 [Example 29a] | > 7.00
* C[Si]1(C)CCN(c2cc(NS(=O)(=O)CCO)ccc2C(=O)Nc2cccc(OCC(O)C(F)(F)F)n2)CC1 (stereo not drawn) | > 7.00
* Cc1cc(NC(=O)c2ccc(S(=O)(=O)NCCO)cc2N2CC[C@@]3(C)C[C@H]3C2)nc(N2CCC(F)(F)CC2)n1 | > 7.00

Given Cc1cc(NC(=O)c2ccc(NS(=O)(=O)CCO)cc2N2CC[Si](C)(C)CC2)nc(N2CCC(F)(F)CC2)c1 , state its recorded pIC50.
6.30 to 7.00

Try C[Si]1(C)CCN(c2cc(NS(=O)(=O)CCO)cc(F)c2C(=O)Nc2cccc(OC[C@H](O)C(F)(F)F)n2)CC1 next.
> 7.00

Try C[Si]1(C)CCN(c2cc(NS(=O)(=O)NCCO)ccc2C(=O)Nc2cccc(OC[C@@H](O)C(F)(F)F)n2)CC1 next.
> 7.00

Try Cc1cc(NC(=O)c2ccc(NS(=O)(=O)CCO)cc2N2CC[C@]3(C(F)F)C[C@@H]3C2)nc(N2CCC(F)(F)CC2)n1 next.
> 7.00
